B1: Gamma-crystallin C, residues 91 to 170; numbered along this chain, P07315 (parent)
chain: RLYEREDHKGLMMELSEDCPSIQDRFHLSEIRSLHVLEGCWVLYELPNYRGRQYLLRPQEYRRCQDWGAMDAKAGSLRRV

- Variants of: B1
- Method Description: abundance fitness (aPCA) (normalised: wild type 0, dead -1); higher = more abundant; growth selection in yeast, the domain comes from the species named
- Experimental Parameters: Homo sapiens
Measurement Kind: abundance fitness

• G10A = -0.976
• E45W = -0.644
• D24L = -0.31
• L46E = 0.04
• S33H = -0.933
• E4F = -0.347
• M70W = -0.257
• A69P = -0.968
• A74C = -0.177
• R32N = -0.146
• D7G = -0.186
• I31D = -0.843
• V36N = -0.772
• R52Q = -0.128
• M13F = -0.253
• S21L = -0.761
• Y44N = -0.325
• D71S = -0.015
• Q53H = -0.386
• P47W = -0.832
• D7M = -0.241
• D24G = -0.167
• R57A = 0.003
• Q59R = -0.047
• R63A = -0.056
• R32K = -0.018
• G75E = -0.984
• I31G = -1.01
• P47T = -0.449
• F26L = -0.343
• L37T = -0.326
• E14I = -0.265
• D66C = -0.485
• N48Y = -0.006
• Q23N = -0.016
• L46Q = -0.262
• M70E = 0.034
• R1I = 0.241
• I22T = -0.649
• Y3K = -0.948
• R25T = -0.148
• Y61H = -0.919
• H27E = -0.119
• R52C = -0.587
• Q23D = -0.276
• P20I = -0.506
• F26W = -0.007
• L11H = -0.144
• L28Q = -0.337
